Each item that follows carries a reported Activity.
System: HaCaT
ASSAY OVERVIEW: Increase in serine palmitoyltransferase protein expression in human HaCaT cells at 100 ug/mL by Western blot relative to untreated control
Type: functional
VALUE TYPE: Activity (%)

NC(=O)c1cccnc1 [NIACINAMIDE] ... 57.3
O=C(/C=C/c1ccc(O)c2c1[C@H](C(=O)O)[C@@H](c1ccc(O)c(O)c1)O2)O[C@H](Cc1ccc(O)c(O)c1)C(=O)O ... 55
COC(=O)[C@H]1c2c(/C=C/C(=O)O[C@H](Cc3ccc(O)c(O)c3)C(=O)O)ccc(O)c2O[C@@H]1c1ccc(O)c(O)c1 ... 23
COC(=O)[C@@H](Cc1ccc(O)c(O)c1)OC(=O)/C=C/c1ccc(O)c2c1[C@H](C(=O)O)[C@@H](c1ccc(O)c(O)c1)O2 ... 81
